- Test system: arterial blood pressure / intratracheal pressure
- experiment notes: Separation of bronchodilator and cardiovascular effects, ratio of hypotensive ED20 / bronchodilating ED50
- Format: in vivo, guinea pig
- condition: Intravenous
- Method: The trachea of anesthetized guinea pig was cannulated and the ITP recorded on a polygraph under artificial ventilation. Arterial blood pressure (ABP; measure of hypotensive activity) was also measured during the experiment. […] To assess the separation of desirable bronchodilator activity from undesirable cardiovascular (hypotensive) effect in the test compounds, the ratio of hypotensive ED20 /bronchodilating ED50 was calculated and indicated in Table 1.
ABP/ITP vs 10: at or above is Y, below is N.

INSERT INTO results (molecule, measured_target, label) VALUES
  ('CCCCOc1nc(N)c2ncn(C3CCCCC3)c2n1 [n-C4 H9 O]', 'arterial blood pressure / intratracheal pressure', 'Y'),
  ('CCOc1nc(N)c2ncn(C3C=CCCC3)c2n1 (stereo not shown) [C2 H5 O]', 'arterial blood pressure / intratracheal pressure', 'Y'),
  ('CCCOc1nc(N)c2ncn(C3CCCCC3)c2n1 [n-C3 H7 O]', 'arterial blood pressure / intratracheal pressure', 'Y'),
  ('Nc1nc(Cl)nc2c1ncn2C1C=CCCC1 (stereo not shown) [Cl]', 'arterial blood pressure / intratracheal pressure', 'Y'),
  ('CCCOc1nc(N)c2ncn(C3C=CCCC3)c2n1 (stereo not shown) [n-C3 H7 O]', 'arterial blood pressure / intratracheal pressure', 'N'),
  ('CCOc1nc(N)c2ncn(C3CCCCC3)c2n1 [C2 H5 O]', 'arterial blood pressure / intratracheal pressure', 'N');

###

- Test system: Arterial blood pressure (ABP)
- experiment notes: In vivo hypotensive activity, arterial blood pressure (ABP) in anesthetized guinea pig
- condition: Intravenous; arterial blood pressure lowering (ED20, 20% reduction)
endpoint label: ABP lowering, ED20 (20% reduction) (mg/kg)

INSERT INTO assay_data (compound, sign_qualifier, value_observed) VALUES
  ('CCOc1nc(N)c2ncn(C3CCCCC3)c2n1', '=', 2.5),
  ('CCCCOc1nc(N)c2ncn(C3CCCCC3)c2n1', '=', 4.4),
  ('CCCOc1nc(N)c2ncn(C3CCCCC3)c2n1', '=', 4.4),
  ('CCOc1nc(N)c2ncn(C3C=CCCC3)c2n1 (stereo not shown)', '=', 4.0),
  ('Nc1nc(Cl)nc2c1ncn2C1C=CCCC1 (stereo not shown)', '=', 2.5),
  ('CCCCCOc1nc(N)c2ncn(C3C=CCCC3)c2n1 (stereo not shown)', '>', 3),
  ('CCCCCCOc1nc(N)c2ncn(C3C=CCCC3)c2n1 (stereo not shown)', '=', 2.7),
  ('CC(C)COc1nc(N)c2ncn(C3CCCCC3)c2n1', '>', 3),
  ('CCCOc1nc(N)c2ncn(C3C=CCCC3)c2n1 (stereo not shown)', '=', 2.0),
  ('CCCCCCOc1nc(N)c2ncn(C3CCCCC3)c2n1', '>', 3),
  ('CCCCOc1nc(N)c2ncn(C3C=CCCC3)c2n1 (stereo not shown)', '>', 3),
  ('CC(C)COc1nc(N)c2ncn(C3C=CCCC3)c2n1 (stereo not shown)', '=', 2.4),
  ('CCCCCOc1nc(N)c2ncn(C3CCCCC3)c2n1', '>', 3);

###

# ABP lowering, ED20 (20% reduction) listing for each entry below
- System: Arterial blood pressure (ABP)
- experiment notes: In vivo hypotensive activity, arterial blood pressure (ABP) in anesthetized guinea pig
- condition: Intraduodenal; arterial blood pressure lowering (ED20, 20% reduction)
endpoint label: ABP lowering, ED20 (20% reduction) (mg/kg)

INSERT INTO assay_data (molecule, measured_target, value_observed) VALUES
  ('CCOc1nc(N)c2ncn(C3C=CCCC3)c2n1 (stereo not shown) [C2 H5 O]', 'Arterial blood pressure (ABP)', 12),
  ('CCCOc1nc(N)c2ncn(C3C=CCCC3)c2n1 (stereo not shown) [n-C3 H7 O]', 'Arterial blood pressure (ABP)', 2.4),
  ('CCCOc1nc(N)c2ncn(C3CCCCC3)c2n1 [n-C3 H7 O]', 'Arterial blood pressure (ABP)', 18),
  ('CCCCOc1nc(N)c2ncn(C3CCCCC3)c2n1 [n-C4 H9 O]', 'Arterial blood pressure (ABP)', 8.3);
